test: NCI Yeast Anticancer Drug Screen. Data for the mlh1 rad18 strain (AID 175); conditions: S. cerevisiae mlh1 rad18 strain growth inhibition; at 50.0 µM
About 79,000 compounds went through this panel and 15% of them were active in at least one assay; those are over-represented in the sample as a whole. The source made the active and inactive calls. Cut-off read from the data, not from the text of the source: active = growth inhibition above about 70%; inactive = the rest.
Classes to choose from: active, inactive

Illustrative cases are given below, each with its answer.
> print(dat)
                                   compound  label.value
1                      Cc1cc(C)c(CCl)cc1CCl     inactive
2  NC(=O)c1c[se]c(C2OC(CO)C(O)C2O)n1 (configuration not stated)     inactive
3  CN(C)C1C(=O)C(C(=O)NP(=O)(NCCCO)N(CCCl)CCCl)=C(O)C2(O)C(=O)C3=C(O)c4c(O)cccc4C(C)(O)C3CC12 (configuration not stated)     inactive
4  NC(=O)C(Cl)c1ccccc1 (configuration not stated)     inactive
5       CC(=O)CC(C)=O.CC(=O)CC(C)=O.[O]=[V]     inactive

Now turn to the next compound.
Req: How did this test come out for "Cn1c(O)c(C=N)c(=O)[nH]c1=O" ?
Resp: inactive
